Consider the following compounds; for each one, report its inhibition.
protocol: inhibitors of E-selectin induction by TNFa, primary screen, imaging, HUVEC, immunofluorescence, MLSMR starter and 10KST1 sets (AID 487);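 also: signal is fraction of cell area covered by stained E-selectin grains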
condition-context: HUVEC TNFalpha-induced E-selectin immunofluorescence imaging, at 2 µM; stronger effect = higher value
Give the number; % is assumed, so skip it.

// fetch inhibition given entry CCOC(=O)c1c(C)c(C(=O)NCCN2CCOCC2)c(C)n1C
1.3

// fetch inhibition given entry Cc1[nH]nc2c1C(c1ccc(F)cc1)C1=C(CC(C)(C)CC1=O)N2 (stereo not given)
-52.8

// fetch inhibition given entry COc1cc(C2Nc3cccc4cccc(c34)N2)cc(OC)c1OC(C)=O
-2.1

// fetch inhibition given entry c1ccc(-n2ncc3c(NCc4cccs4)ncnc32)cc1
-3.7

// fetch inhibition given entry COc1ccccc1-n1c(C)nnc1SCC(=O)Nc1cccc(C(C)=O)c1
52.4
